Assay: BET inhibitor-based combinations targeting novel dependencies in MECOM-rearranged (r) AML: HNT-34 cell line (AID 2202234); note: nearly all actives have a fitted effect of over 35% in size; note: potency is the fitted concentration of half-maximal effect
Conditions: HNT-34 AML viability, CellTiter-Glo luminescence, 48 h; series mostly up to 46 µM
Records with an inconclusive call do not appear. Activity calls are given as the source filed them. Calls come from the whole dose curve; as a rule, active = well fitted inhibition curve with a large enough effect; inconclusive = small, poorly fitted or top-dose-only effect; inactive = no such curve, though single readings can be large or run the other way.
measurement_kind: Potency

Consider the reported Potency for these molecules:
[
  {
    "molecule": "Nc1nccc(Oc2ccc(NC(=O)c3c[nH]cc(-c4ccc(F)cc4)c3=O)cc2F)c1Cl",
    "Potency": "18.6 µM (active)"
  },
  {
    "molecule": "CCCCC(CC)COC(=O)C(C#N)=C(c1ccccc1)c1ccccc1 (stereo not given)",
    "Potency": "inactive"
  },
  {
    "molecule": "c1cc(OCCN2CCCCC2)cc(-c2n[nH]c3ccc(-c4ncn[nH]4)cc23)c1",
    "Potency": "14.8 µM (active)"
  },
  {
    "molecule": "O=C1CN2Cc3c(ccc(Cl)c3Cl)N=C2N1",
    "Potency": "inactive"
  },
  {
    "molecule": "NC[C@H]1O[C@H](O[C@@H]2[C@@H](O)[C@@H](O[C@H]3O[C@H](CO)[C@@H](O)[C@H](N)[C@@H]3O)[C@H](N)C[C@@H]2N)[C@H](O)[C@@H](O)[C@H]1O",
    "Potency": "inactive"
  }
]

Documented Potency of c1cn2cc(-c3ccc4cn[nH]c4c3)nc(Nc3ccc(N4CCOCC4)cc3)c2n1 : 4.17 µM (active)

Documented Potency of COc1cccc(-c2cc(F)ccc2C2Cc3nc(N)nc(C)c3C(=O)N2)n1 (stereo not given) : 0.132 µM (active)

Documented Potency of CC(Cc1ccc(O)c(O)c1)(NN)C(=O)O (stereo not given) : inactive

Documented Potency of Cc1ccc(CN2CCNCC2)cc1NC(=O)CNc1ccc(F)c(F)c1 : inactive

Documented Potency of Cc1nc2c(-c3cnc(N)nc3)nc(N3CCOCC3)nc2n1C(C)C : 0.525 µM (active)

====

Target: Aldehyde dehydrogenase, mitochondrial (Homo sapiens) (UniProt P05091)
Test: qHTS for Inhibitors of the Aldehyde Dehydrogenase Family (ALDH2) Primary screen (AID 2061308); note: nearly all actives have a fitted effect of over 55% in size
Conditions: ALDH2 enzyme inhibition qHTS, 1536-well; series mostly up to 56 µM
Records with an inconclusive call do not appear. Active and inactive are the calls of the source. The call rests on the fitted dose curve; in most records, active means well fitted inhibition curve with a large enough effect; inconclusive means small, poorly fitted or top-dose-only effect; inactive means flat fitted curve, though single readings scatter.
measurement_kind: activity change, negative = inhibition

Consider the reported activity change, negative = inhibition for these compounds:
[
  {
    "compound": "COc1cc(-n2cnc3cc(-c4ccc(Cl)cc4)sc3c2=O)ccc1OCCN1CCCC1",
    "test_system": "Aldehyde dehydrogenase, mitochondrial (Homo sapiens) (UniProt P05091)",
    "result": "inactive"
  },
  {
    "compound": "CN(C)C(=O)Nc1cccc(-c2ccc(N(C)C)cc2)c1",
    "test_system": "Aldehyde dehydrogenase, mitochondrial (Homo sapiens) (UniProt P05091)",
    "result": "inactive"
  },
  {
    "compound": "NCC(=O)Nc1ccc(-n2nc(C(F)(F)F)cc2-c2ccc3c(ccc4ccccc43)c2)cc1",
    "test_system": "Aldehyde dehydrogenase, mitochondrial (Homo sapiens) (UniProt P05091)",
    "result": "inactive"
  },
  {
    "compound": "CNC(C)C(=O)NC(C(=O)N1CCCC1C(=O)Nc1cccc2ncccc12)C(C)C (centres undefined)",
    "test_system": "Aldehyde dehydrogenase, mitochondrial (Homo sapiens) (UniProt P05091)",
    "result": "inactive"
  },
  {
    "compound": "Cc1nnc(-c2ccc(-c3ccc(C(=O)Nc4ccc(O)c(N5CCN(C)CC5)c4)cc3)c(C)c2)o1",
    "test_system": "Aldehyde dehydrogenase, mitochondrial (Homo sapiens) (UniProt P05091)",
    "result": "inactive"
  }
]

Documented activity change, negative = inhibition of CCO[C@@H]1OC(=O)C[C@@H]1NC(=O)[C@@H]1CCCN1C(=O)[C@@H](NC(=O)c1ccc(N)c(Cl)c1)C(C)(C)C : inactive

Documented activity change, negative = inhibition of C=C(C(=O)O)C1CCC2(C)CCC(O)C(C)(O)C2C1 (centres undefined) : inactive

Documented activity change, negative = inhibition of CC(C)(C)Nc1nc2cc(Cl)c(Cl)cc2nc1S(C)(=O)=O : inactive

Documented activity change, negative = inhibition of CC(C)C1NC(=O)C(CC2(O)c3ccccc3N3C(=O)C(Cc4ccccc4)NC32)NC1=O (centres undefined) : inactive

Hello, the source for this data is PubChem BioAssay (NCATS), in case you need it.
